Literature compilation of IC50 measurements on UniProt O75116.

compound=COc1ccc(F)cc1CN1CCN(c2ccc(-c3cn[nH]c3)c(F)c2)C1=O targetortestsystem="UniProt O75116" readoutvalue="2.1 to 20 nM"
compound="O=C(N[C@H]1CC2(C1)C[C@H](c1n[nH]c(=O)c3ccccc31)C2)c1ccn(CC(F)(F)F)n1 (single isomer, unassigned)" targetortestsystem="UniProt O75116" readoutvalue="100 to 2100 nM"
compound="O=C1OC(c2ccccc2)CN1c1ccc(-c2n[nH]c(=O)c3ccccc23)cc1 (centres unmarked)" targetortestsystem="UniProt O75116" readoutvalue="10 to 100 nM"
compound=Cn1c(C(=O)OCC(F)(F)F)cc2c1CN(c1nccc(Nc3ccc(-c4cn[nH]c4)cc3)n1)CC2 targetortestsystem="UniProt O75116" readoutvalue="50 to 500 nM"
compound="COc1cccc(C(C)n2c(C)nn(-c3ccc(-c4cn[nH]c4)cc3)c2=O)c1 (single isomer, unassigned)" targetortestsystem="UniProt O75116" readoutvalue="5 to 50 nM"
compound="O=c1[nH]nc([C@H]2CC3(C[C@H](Nc4ncc(-c5ccccc5)o4)C3)C2)c2ccccc12 (some centres unmarked)" targetortestsystem="UniProt O75116" readoutvalue="100 to 2100 nM"
compound=COc1cc(F)cc(Cn2ccn(-c3ccc(-c4cn[nH]c4)c(OC)n3)c2=O)c1 targetortestsystem="UniProt O75116" readoutvalue="< 2 nM"

Please turn your attention to the following entry.
# input Look up UniProt O75116 data: IC50 of "COCCN1CCC2(CC1)CN(c1ccc(-c3cn[nH]c3)cc1)C(=O)N2Cc1cccc(OC)c1" , then report it.
# output 3 to 30 nM

----------
Several reports have described IC50 for ROCK2 (Homo sapiens); a selection of those results is presented here.

# example entries with known answers
molecule="[H][C@]1(c2n[nH]c(=O)c3ccccc32)C[C@]2(C[C@@H](NC(=O)c3cnc4cc(N5CCN(C)CC5)ccn34)C2)C1 (stereo partly drawn)" targetortestsystem="ROCK2 (Homo sapiens)" readoutvalue="0.2 to 2 nM"
molecule=O=c1n(Cc2ccc(F)cc2F)ccn1-c1ccc(-c2cn[nH]c2)cc1 targetortestsystem="ROCK2 (Homo sapiens)" readoutvalue="20.1 to 200 nM"
molecule="O=C(NC1CC2(C1)CC(c1n[nH]c(=O)c3ccccc13)C2)c1cnn2cc(OCc3ccccc3)ccc12 (stereo not drawn)" targetortestsystem="ROCK2 (Homo sapiens)" readoutvalue="0.2 to 2 nM"
molecule=COc1cc(-n2ncn(Cc3cc(F)ccc3F)c2=O)ccc1-c1cn[nH]c1 targetortestsystem="ROCK2 (Homo sapiens)" readoutvalue="5 to 50 nM"
molecule=COc1ccc(CN2CCN(c3ccc(-c4cn[nH]c4)c(F)c3)C2=O)cc1F targetortestsystem="ROCK2 (Homo sapiens)" readoutvalue="20.1 to 200 nM"

# input Give IC50 for the following molecule: "COc1ccc(F)cc1CN1CCN(c2ccc(-c3cn[nH]c3)c(OC)n2)C1=O"
# output 2.1 to 20 nM

----------
Hi, quick share: literature pIC50 data for ROCK2 (Homo sapiens, UniProt O75116), several sources combined.
pIC50: −log10 of the molar value.

compound="O=C1N(c2cnc(-c3cn[nH]c3)cn2)CCC12Cc1ccccc1N2 (stereo not drawn)" targetortestsystem="ROCK2 (Homo sapiens, UniProt O75116)" readoutvalue="7.52 to 8.52"

# input Using ROCK2 (Homo sapiens, UniProt O75116) as the test system, report measured pIC50 of "COc1nc(-n2nc(Nc3ccc4[nH]ncc4c3Cl)c3ccccc32)ccc1OCC(=O)NC(C)C" .
# output > 6.52

# input Specify the recorded pIC50 for [H][C@]1(c2n[nH]c(=O)c3ccccc32)C[C@]2(C[C@@H](NC(=O)c3cnc4c(F)cc(F)cn34)C2)C1 (stereo partly drawn) , system: ROCK2 (Homo sapiens, UniProt O75116).
# output 7.82 to 8.29

----------
// merged dataset of pIC50 values, system = ROCK2 (Homo sapiens, UniProt O75116), multiple refs
pIC50: −log10 of the molar value.

These solved cases illustrate the format of a correct answer.
compound=COc1cc(-n2cc(C)c(Nc3ccc4[nH]ncc4c3Cl)n2)ccc1OCC(=O)NC(C)C targetortestsystem="ROCK2 (Homo sapiens, UniProt O75116)" readoutvalue="> 6.52"
compound="COc1ccc2c(c1)CN(C(=O)NC1CC3(C1)CC(c1n[nH]c(=O)c4ccccc14)C3)C2 (stereo not drawn)" targetortestsystem="ROCK2 (Homo sapiens, UniProt O75116)" readoutvalue="7.82 to 8.29"

Now look at this entry.
# input Please report the measured pIC50 for "COc1cc(F)cc(Cn2c(CN3CCNCC3)nn(-c3ccc(-c4cn[nH]c4)cc3)c2=O)c1"
# output 7.30 to 8.30

----------
pIC50: −log10 of the molar value.
Field: pIC50. System: ROCK2 (Homo sapiens, UniProt O75116). Provenance: assorted publications.

// known answers, use as guide
compound=Cc1nn(Cc2cc(F)ccc2F)c(=O)n1-c1ccc(-c2cn[nH]c2)cc1 targetortestsystem="ROCK2 (Homo sapiens, UniProt O75116)" readoutvalue="5.70 to 6.60"
compound=CCc1cc(-n2ncn(Cc3cc(F)cc(OC)c3)c2=O)ccc1-c1cn[nH]c1 targetortestsystem="ROCK2 (Homo sapiens, UniProt O75116)" readoutvalue="7.30 to 8.30"
compound="O=C1N(c2ccc(-c3cn[nH]c3)cc2)CCC12Cc1ccc(OCC3CC3)cc1N2 (single isomer, unassigned)" targetortestsystem="ROCK2 (Homo sapiens, UniProt O75116)" readoutvalue="6.52 to 7.52"

# input GET pIC50 | system: ROCK2 (Homo sapiens, UniProt O75116) | item: O=C(NC1CC2(C1)CC(c1n[nH]c(=O)c3ccccc13)C2)c1noc(-c2ccc(F)cc2)n1 (stereo not drawn)
# output 7.00 to 7.82

# input Given [H][C@]1(c2n[nH]c(=O)c3ccccc32)C[C@]2(C[C@@H](NC(=O)c3cnc4cc(C(C)=O)ccn34)C2)C1 (stereo partly drawn) , report its pIC50 on ROCK2 (Homo sapiens, UniProt O75116).
# output 8.70 to 9.70

# input Quote pIC50 with test system ROCK2 (Homo sapiens, UniProt O75116) for "CC(C)COc1cc(F)cc([C@@H](CO)NC(=O)N2CCc3cc(-c4cn[nH]c4)c(F)cc32)c1"
# output 6.30 to 7.30

# input Answer briefly: pIC50 recorded on ROCK2 (Homo sapiens, UniProt O75116) for "Cn1c(C(=O)N2CC(C(F)(F)F)C2)cc2c1CN(c1nccc(Nc3ccc(-c4cn[nH]c4)cc3)n1)CC2"
# output ≥ 7.30

# input Provide measured pIC50 on ROCK2 (Homo sapiens, UniProt O75116) for COc1cccc(C(CO)N2CCN(c3ccc(-c4cn[nH]c4)cc3)C2=O)c1 (single isomer, unassigned) please.
# output 6.70 to 7.70

# input Report its pIC50 with ROCK2 (Homo sapiens, UniProt O75116) as the test system: O=C(NC1CC2(C1)CC(c1n[nH]c(=O)c3ccccc13)C2)c1cnn2cc(-c3cnn(C4CCOC4)c3)ccc12 (stereo not drawn)
# output 8.70 to 9.70

----------
Consider the following IC50 data for UniProt:O75116, collected from several reports.

Answered examples (6):
molecule=COc1cccc(CN2C(=O)N(c3ccc(-c4cn[nH]c4)cc3)CC23CCN(C(=O)N(C)C)CC3)c1 readoutvalue="< 3 nM"
molecule=NC(=O)c1cccc(CN2CCN(c3ccc4c(n3)OCc3n[nH]cc3-4)C2=O)c1 readoutvalue="10 to 100 nM"
molecule=Cc1nn(-c2ccc(-c3cn[nH]c3)cc2)c(=O)n1Cc1cccc(C#N)c1 readoutvalue="250 to 2000 nM"
molecule="COc1cc(F)cc(C(C)N2CCN(c3ccc(-c4cn[nH]c4)c(OC)n3)C2=O)c1 (single isomer, unassigned)" readoutvalue="< 2 nM"
molecule="Cc1nnn(C)c1-c1ccc2c(C(=O)NC3CC4(C3)CC(c3n[nH]c(=O)c5ccccc35)C4)cnn2c1 (stereo not shown)" readoutvalue="15.1 to 100 nM"
molecule="O=C(NC1CC2(C1)CC(c1n[nH]c(=O)c3ccccc13)C2)c1cnn2cc(CCC(=O)N3CCOCC3)ccc12 (stereo not shown)" readoutvalue="2.01 to 5 nM"

# input Provide the reported IC50 (system: UniProt:O75116) for "COCCN1CCC2(CC1)CN(c1ccc(-c3cn[nH]c3)c(OC)n1)C(=O)N2Cc1cccc(F)c1C"
# output < 3 nM

----------
IC50 values for ROCK2 (Homo sapiens) compiled from several publications are listed below.

Observe how each entry below is paired with its result.
compound="O=C(NC1CC2(C1)CC(c1n[nH]c(=O)c3ccccc13)C2)c1ccn(CC2CC2)n1 (centres unmarked)" recordedmetric=IC50 readoutvalue="5.1 to 15 nM"
compound=CCOC(=O)c1ccc(CN2CCC[C@H](Nc3ccc4[nH]ncc4c3)C2)cc1 recordedmetric=IC50 readoutvalue="6180 nM"
compound=COc1cccc(CN2CCN(c3ccc4c(n3)OCc3n[nH]cc3-4)C2=O)c1F recordedmetric=IC50 readoutvalue="100 to 500 nM"
compound="CCOc1cccc(C(C)N2CCN(c3ccc(-c4cn[nH]c4)c(CC)n3)C2=O)c1 (single isomer, unassigned)" recordedmetric=IC50 readoutvalue="200 to 2000 nM"
compound=COc1cc(N2CCC3(CCN(C(=O)c4ccc(-c5nnco5)cc4)CC3)C2=O)ccc1-c1cn[nH]c1 recordedmetric=IC50 readoutvalue="16 nM"

# input Lab note: record IC50 of CCC1CN(c2ccc(-c3cn[nH]c3)cc2)C(=O)N1Cc1cccc(OC)c1 (centres unmarked) tested on ROCK2 (Homo sapiens).
# output < 2 nM

# input State IC50 (ROCK2 (Homo sapiens)) of "COc1cccc(CN2C(=O)N(c3ccc(-c4cn[nH]c4)c(OC)n3)CC23CCN(C(=O)C(C)(C)O)CC3)c1" .
# output < 3 nM

# input Answer with IC50 of O=C(NC1CC2(C1)CC(c1n[nH]c(=O)c3ccccc13)C2)c1cnn2ncccc12 (centres unmarked) measured for ROCK2 (Homo sapiens).
# output 15.1 to 100 nM

# input // output IC50; input "Cn1cc(C(=O)Nc2cncc(-n3nc(Nc4ccc5[nH]ncc5c4Cl)c4ccccc43)c2)cn1" ; system ROCK2 (Homo sapiens)
# output > 10000 nM

# input Report IC50 on ROCK2 (Homo sapiens) for this entry: CC(C)(C)n1cc(-c2ccc3c(C(=O)NC4CC5(C4)CC(c4n[nH]c(=O)c6ccccc46)C5)cnn3c2)cn1 (centres unmarked)
# output 0.2 to 2 nM

# input Recall the reported IC50 of O=C(Nc1cccc(CN2CCC(Nc3cccc4cnccc34)C2)c1)c1cccc(C(=O)OCC2CCCO2)c1 (centres unmarked) when tested on ROCK2 (Homo sapiens).
# output < 100 nM
